Items are presented alongside their recorded inhibition at 0.01 µM.
- system tested: receptor tyrosine kinase c-Met (Homo sapiens)
- Sequence (P08581 25-1390): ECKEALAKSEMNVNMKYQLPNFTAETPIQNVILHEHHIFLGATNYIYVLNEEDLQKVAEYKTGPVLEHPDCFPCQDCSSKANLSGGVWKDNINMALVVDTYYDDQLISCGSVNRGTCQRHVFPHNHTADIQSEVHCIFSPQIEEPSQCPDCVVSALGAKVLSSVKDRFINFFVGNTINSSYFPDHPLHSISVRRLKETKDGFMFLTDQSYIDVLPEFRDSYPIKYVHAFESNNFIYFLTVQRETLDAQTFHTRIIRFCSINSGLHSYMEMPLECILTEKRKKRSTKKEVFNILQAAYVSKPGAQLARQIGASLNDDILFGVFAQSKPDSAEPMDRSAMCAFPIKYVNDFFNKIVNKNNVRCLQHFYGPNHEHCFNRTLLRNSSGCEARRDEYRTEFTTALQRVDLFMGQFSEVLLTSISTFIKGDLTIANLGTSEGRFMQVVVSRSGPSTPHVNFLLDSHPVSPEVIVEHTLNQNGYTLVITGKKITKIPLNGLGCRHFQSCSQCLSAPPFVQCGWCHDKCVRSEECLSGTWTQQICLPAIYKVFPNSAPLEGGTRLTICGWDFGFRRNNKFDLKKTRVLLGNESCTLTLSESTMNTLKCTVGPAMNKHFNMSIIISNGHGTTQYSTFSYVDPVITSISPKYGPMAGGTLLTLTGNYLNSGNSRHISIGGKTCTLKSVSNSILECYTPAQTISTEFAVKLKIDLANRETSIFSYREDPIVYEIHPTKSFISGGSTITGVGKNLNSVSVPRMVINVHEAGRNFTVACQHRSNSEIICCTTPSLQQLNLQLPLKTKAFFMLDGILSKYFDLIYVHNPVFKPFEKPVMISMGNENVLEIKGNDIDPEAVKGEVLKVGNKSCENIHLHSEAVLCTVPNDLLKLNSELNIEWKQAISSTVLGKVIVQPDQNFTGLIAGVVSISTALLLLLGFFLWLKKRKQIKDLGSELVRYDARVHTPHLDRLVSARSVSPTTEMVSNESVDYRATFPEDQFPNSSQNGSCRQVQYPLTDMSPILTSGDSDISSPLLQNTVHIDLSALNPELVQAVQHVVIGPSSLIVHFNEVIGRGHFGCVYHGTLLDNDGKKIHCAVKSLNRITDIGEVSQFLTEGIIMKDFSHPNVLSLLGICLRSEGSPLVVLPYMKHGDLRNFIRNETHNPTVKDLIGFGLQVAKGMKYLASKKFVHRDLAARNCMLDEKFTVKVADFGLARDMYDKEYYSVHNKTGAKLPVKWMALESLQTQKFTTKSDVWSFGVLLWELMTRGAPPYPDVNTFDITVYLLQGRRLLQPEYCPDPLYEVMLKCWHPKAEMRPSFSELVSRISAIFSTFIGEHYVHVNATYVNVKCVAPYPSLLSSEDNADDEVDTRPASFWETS
- test description: In vitro c-Met kinase inhibitory activity
- Assay type: biochemical
- measurement parameters: 10 nM; two values per compound; read-out: c-Met Inhibitory rate (%)

smiles entry | inhibition at 0.01 µM / %
COCCOc1cc2ncnc(Oc3ccc(NC(=O)c4c5n(n(-c6ccc(F)cc6)c4=O)CCCC5)cc3F)c2cc1OCCOC | 69.4
O=C(Nc1ccc(Oc2ncnc3cc4c(cc23)OCCOCCOCCO4)c(Cl)c1)c1c2n(n(-c3ccc(F)cc3)c1=O)CCCC2 | 71.2
COCCOc1cc2ncnc(Oc3ccc(NC(=O)c4c5n(n(-c6cc(F)ccc6F)c4=O)CCCC5)cc3Cl)c2cc1OCCOC | 68.8
COCCOc1cc2ncnc(Oc3ccc(NC(=O)c4c5n(n(-c6ccccc6F)c4=O)CCCC5)cc3C(F)(F)F)c2cc1OCCOC | 71.6
